- MEASURED ON: cGMP-specific 3',5'-cyclic phosphodiesterase (Homo sapiens, UniProt O76074)
- EXPERIMENT: Inhibition of human Phosphodiesterase 5
ENDPOINT NAME: pIC50
Field pIC50 (float): negative decimal logarithm of the concentration in molar.

Observe how each entry below is paired with its result.
COMPOUND: NC(=O)c1ccc(-c2cc(Cl)c3c(c2)C2(CCCCC2)NC(=O)N3)cc1
MEASURED ON: cGMP-specific 3',5'-cyclic phosphodiesterase (Homo sapiens, UniProt O76074)
VAL: 4.94
--
COMPOUND: O=C1Nc2c(Cl)cc(-c3ccccc3)cc2C2(CCCCC2)N1
MEASURED ON: cGMP-specific 3',5'-cyclic phosphodiesterase (Homo sapiens, UniProt O76074)
VAL: 4.16

Input line: Specify measured pIC50 for CN1CCN(C(=O)c2ccc(-c3cc(Cl)c4c(c3)C3(CCCCC3)NC(=O)N4)cc2)CC1 .
Output line: 4.53

----------
- MEASURED ON: cGMP-inhibited 3',5'-cyclic phosphodiesterase 3A (Homo sapiens, UniProt Q14432)
- Sequence (Q14432 whole entry): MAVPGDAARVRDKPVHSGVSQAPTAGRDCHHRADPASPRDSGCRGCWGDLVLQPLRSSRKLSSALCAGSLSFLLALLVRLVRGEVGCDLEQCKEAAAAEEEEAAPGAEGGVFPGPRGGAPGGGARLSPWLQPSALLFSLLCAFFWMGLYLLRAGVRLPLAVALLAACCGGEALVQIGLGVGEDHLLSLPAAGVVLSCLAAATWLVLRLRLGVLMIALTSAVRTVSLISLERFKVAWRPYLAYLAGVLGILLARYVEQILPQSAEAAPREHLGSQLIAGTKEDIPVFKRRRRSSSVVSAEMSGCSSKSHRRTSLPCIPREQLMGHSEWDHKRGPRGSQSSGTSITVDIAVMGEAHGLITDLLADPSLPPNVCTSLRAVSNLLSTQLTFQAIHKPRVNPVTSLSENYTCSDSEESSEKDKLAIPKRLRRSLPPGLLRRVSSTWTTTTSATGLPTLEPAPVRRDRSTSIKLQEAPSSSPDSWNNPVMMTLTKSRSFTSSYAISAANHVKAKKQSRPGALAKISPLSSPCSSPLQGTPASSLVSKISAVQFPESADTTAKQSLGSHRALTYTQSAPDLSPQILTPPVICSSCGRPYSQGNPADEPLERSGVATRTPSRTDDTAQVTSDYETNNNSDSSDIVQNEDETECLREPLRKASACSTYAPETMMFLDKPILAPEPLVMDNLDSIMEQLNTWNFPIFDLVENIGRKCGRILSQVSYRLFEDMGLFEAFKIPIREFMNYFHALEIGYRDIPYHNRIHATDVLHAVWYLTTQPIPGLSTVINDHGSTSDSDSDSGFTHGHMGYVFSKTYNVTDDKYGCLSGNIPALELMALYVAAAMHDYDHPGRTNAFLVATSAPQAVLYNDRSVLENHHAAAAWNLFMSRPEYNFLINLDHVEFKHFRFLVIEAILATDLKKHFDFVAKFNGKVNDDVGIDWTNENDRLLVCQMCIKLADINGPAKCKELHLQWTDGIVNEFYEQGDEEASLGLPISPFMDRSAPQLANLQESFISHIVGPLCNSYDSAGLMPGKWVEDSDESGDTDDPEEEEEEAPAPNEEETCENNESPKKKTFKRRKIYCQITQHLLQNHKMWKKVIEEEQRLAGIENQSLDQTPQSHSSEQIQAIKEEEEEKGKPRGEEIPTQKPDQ
- EXPERIMENT: In vitro inhibition of human Phosphodiesterase 3A3 expressed in baculovirus infected Sf9 cells
Reported IC50 values follow for various compounds
Entry rule: numbers only, all in µM.

Observe how each entry below is paired with its result.
COMPOUND: CN(C)CCCNC(=O)c1ccc(-c2cc(Cl)c3c(c2)C2(CCCCC2)NC(=O)N3)cc1
MEASURE UNIT: µM
IC50: 44.5
--
COMPOUND: CN(C)CCNC(=O)c1ccc(-c2cc(Cl)c3c(c2)C2(CCCCC2)NC(=O)N3)cc1
MEASURE UNIT: µM
IC50: 42.2
--
COMPOUND: O=C1Nc2c(Cl)cc(-c3ccc(C(=O)O)cc3)cc2C2(CCCCC2)N1
MEASURE UNIT: µM
IC50: 21.3

Input line: Please respond with reported IC50 (system cGMP-inhibited 3',5'-cyclic phosphodiesterase 3A (Homo sapiens, UniProt Q14432)) for O=C1Nc2c(Cl)cc(-c3cccc(C(=O)O)c3)cc2C2(CCCCC2)N1 .
Output line: 16.7

Input line: Please respond with reported IC50 (system cGMP-inhibited 3',5'-cyclic phosphodiesterase 3A (Homo sapiens, UniProt Q14432)) for O=C1Nc2c(Cl)cc(-c3cccnc3)cc2C2(CCCCC2)N1 .
Output line: 14.8

Input line: Please respond with reported IC50 (system cGMP-inhibited 3',5'-cyclic phosphodiesterase 3A (Homo sapiens, UniProt Q14432)) for O=C1Nc2c(Cl)cc(-c3ccccn3)cc2C2(CCCCC2)N1 .
Output line: 45.1

Input line: Please respond with reported IC50 (system cGMP-inhibited 3',5'-cyclic phosphodiesterase 3A (Homo sapiens, UniProt Q14432)) for CN(C)CCCNC(=O)c1cccc(-c2cc(Cl)c3c(c2)C2(CCCCC2)NC(=O)N3)c1 .
Output line: 78.1

Input line: Please respond with reported IC50 (system cGMP-inhibited 3',5'-cyclic phosphodiesterase 3A (Homo sapiens, UniProt Q14432)) for CN1CCN(C(=O)c2cccc(-c3cc(Cl)c4c(c3)C3(CCCCC3)NC(=O)N4)c2)CC1 .
Output line: 31.6

Data provenance: ChEMBL document CHEMBL1137827
